These data points were gathered from patent US20230365662A1.

So I've got a bunch of binders here, and I need their Ratio OD(Variant)/OD(WT) values.
# targetUnderTest: HRgpA-6H (Porphyromonas gingivalis) (UniProt P28784)
# protocolText: ELISA, FASEBA Fab on coated HRgpA-6H
# respond with the number and nothing more

Value of Ratio OD(Variant)/OD(WT) reported for the binder KB001 mouse Fab VL L55K (Fab, V domains shown) VH: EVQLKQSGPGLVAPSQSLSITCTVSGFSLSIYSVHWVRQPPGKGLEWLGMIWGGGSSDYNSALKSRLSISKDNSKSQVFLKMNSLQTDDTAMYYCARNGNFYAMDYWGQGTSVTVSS VL: QIVLTQSPAIMSASLGERVTMTCTASSSVSSSFLHWYQQKPGSSPQLWIYSTSNKASGVPARFSGSGSGTSYSLTISSMEAEDAATYYCHQYHHSPYIYTFGGGTKLEIK is 0.981

GET /value?item= KB001 mouse Fab VL S30I (Fab, V domains shown) VH: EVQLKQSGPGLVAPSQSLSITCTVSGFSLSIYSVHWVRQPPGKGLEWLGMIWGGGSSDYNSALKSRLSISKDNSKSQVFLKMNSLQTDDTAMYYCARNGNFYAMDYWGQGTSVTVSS VL: QIVLTQSPAIMSASLGERVTMTCTASSSVISSFLHWYQQKPGSSPQLWIYSTSNLASGVPARFSGSGSGTSYSLTISSMEAEDAATYYCHQYHHSPYIYTFGGGTKLEIK &field=Ratio OD(Variant)/OD(WT) returns 0.998
